Assay: total protein half-life in vivo (active degradation + dilution); higher = more stable protein
Settings: E. coli NCM3722 delta-clpP delta-lon delta-hslV; growth: N-lim chemostat; doubling time 6 h
Assign class by total protein half-life in vivo: not lower than 5 h means TRUE; lower than 5 h means FALSE.

Recorded results for 3 sequences are shown here.
MPKKNEAPASFEKALSELEQIVTRLESGDLPLEEALNEFERGVQLARQGQAKLQQAEQRVQILLSDNEDASLTPFTPDNE [P0A8G9] :: TRUE
MIHSSVKRWGNSPAVRIPATLMQALNLNIDDEVKIDLVDGKLIIEPVRKEPVFTLAELVNDITPENLHENIDWGEPKDKEVW [P0AE72] :: TRUE
MTRLASRFGAANLIRRDRPLTREELFRVVPSVFSEDKHESRSERYTYIPTISLLDSLQREGFQPFFACQTRVRDPGRREHTKHMLRLRREGQITGKQVPEIILLNSHDGTSSYQMLPGLFRAVCQNGLVCGESFGEVRVPHKGDVVSQVIEGAYEVLGIFDRVEEKRDAMQSLLLPPPAQQALAKAALTYRFGEDHQPVTESQILSPRRWQDESNDLWTTYQRIQENLIKGGLSGRNAKGGRSHTRAVRGIDGDVKLNRALWVMAEALLTQLQ :: TRUE

*Q* In plain terms: is recorded total protein half-life in vivo at least 5 h for `MKIISKMLVGALALAVTNVYAAELMTKAEFEKVESQYEKIGDISTSNEMSTADAKEDLIKKADEKGADVLVLTSGQTDNKIHGTANIYKKK` ?
*A* TRUE

*Q* Moving on to the next sequence: MTVRVAINGFGRIGRNVVRALYESGRRAEITVVAINELADAAGMAHLLKYDTSHGRFAWEVRQERDQLFVGDDAIRVLHERSLQSLPWRELGVDVVLDCTGVYGSREHGEAHIAAGAKKVLFSHPGSNDLDATVVYGVNQDQLRAEHRIVSNASCTTNCIIPVIKLLDDAYGIESGTVTTIHSAMHDQQVIDAYHPDLRRTRAASQSIIPVDTKLAAGITRFFPQFNDRFEAIAVRVPTINVTAIDLSVTVKKPVKANEVNLLLQKAAQGAFHGIVDYTELPLVSVDFNHDPHSAIVDGTQTRVSGAHLIKTLVWCDNEWGFANRMLDTTLAMATVAFR [P0A9B6]
*A* FALSE

*Q* Note, next up: `MTQFNPVDHPHRRYNPLTGQWILVSPHRAKRPWQGAQETPAKQVLPAHDPDCFLCAGNVRVTGDKNPDYTGTYVFTNDFAALMSDTPDAPESHDPLMRCQSARGTSRVICFSPDHSKTLPELSVAALTEIVKTWQEQTAELGKTYPWVQVFENKGAAMGCSNPHPHGQIWANSFLPNEAEREDRLQKEYFAEQKSPMLVDYVQRELADGSRTVVETEHWLAVVPYWAAWPFETLLLPKAHVLRITDLTDAQRSDLALALKKLTSRYDNLFQCSFPYSMGWHGAPFNGEENQHWQLHAHFYPPLLRSATVRKFMVGYEMLAETQRDLTAEQAAERLRAVSDIHFRESGV`
*A* FALSE

*Q* Try the sequence MTGMTNVTKLASEPSGQEFLVFTLGDEEYGIDILKVQEIRGYDQVTRIANTPAFIKGVTNLRGVIVPIVDLRIKFSQVDVDYNDNTVVIVLNLGQRVVGIVVDGVSDVLSLTAEQIRPAPEFAVTLSTEYLTGLGALGDRMLILVNIEKLLNSEEMALLDSAASEVA [P0A964]
*A* TRUE

*Q* Can you check `MSTEKEKMIAGELYRSADETLSRDRLRARQLIHRYNHSLAEEHTLRQQILADLFGQVTEAYIEPTFRCDYGYNIFLGNNFFANFDCVMLDVCPIRIGDNCMLAPGVHIYTATHPIDPVARNSGAELGKPVTIGNNVWIGGRAVINPGVTIGDNVVVASGAVVTKDVPDNVVVGGNPARIIKKL` next?
*A* FALSE
